PBM E-score for assorted sequences
- Target or test system: Cad1 (UniProt P24813)
- Sequence: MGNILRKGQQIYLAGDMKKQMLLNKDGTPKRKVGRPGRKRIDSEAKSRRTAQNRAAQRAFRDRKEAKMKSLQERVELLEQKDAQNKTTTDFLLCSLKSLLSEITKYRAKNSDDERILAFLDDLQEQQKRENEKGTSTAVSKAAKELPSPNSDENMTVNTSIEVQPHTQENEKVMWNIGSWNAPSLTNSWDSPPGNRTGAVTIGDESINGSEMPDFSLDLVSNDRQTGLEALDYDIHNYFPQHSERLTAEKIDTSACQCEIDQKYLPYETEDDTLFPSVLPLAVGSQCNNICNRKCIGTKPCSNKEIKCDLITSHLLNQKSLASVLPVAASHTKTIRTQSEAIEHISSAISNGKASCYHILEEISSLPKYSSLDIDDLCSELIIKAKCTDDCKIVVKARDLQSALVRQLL
- Protocol: PBM E-score (8-mer binding enrichment) (E-score (-0.5 to 0.5)); higher = stronger / more preferred TF binding
- Recorded conditions: protein concentration: 100 nM; construct: GST-full length
Whole data set: some 33,000 sequences, median “E-score (-0.5 to 0.5)” near -0.0014, cut for the highest 2% near 0.25. The full list was thinned out, with the highest values kept by preference.
A bare number is all that is needed in reply.

Solved entries:
TTACGCAA : 0.268
ATTAAAAC : 0.108
CACGACTA : -0.148
CATATCGC : 0.0925
GCGCGTAA : 0.293
ACTAAAAT : 0.255

State the recorded PBM E-score for this entry: TCATTCAA
0.13

Field request: PBM E-score | item: CCCTGTGA
-0.161

Give its PBM E-score value. Item: ACTAAAAC
0.116
